tested on: NOMO1; assay: cell viability relative to DMSO control; higher = less cytotoxic; settings: RPMI 5 mM glucose + 10% FBS; 48 h; 0.19 µM
Please respond with reported cell viability for every item in the list.
Form entry: enter the amount, then its unit.

Consider the following illustrative entries.
# compound, property-name, measured
data = [
    ("Cc1cc(Nc2ncc(Cl)c(Nc3ccccc3[S+](=O)([O-])C(C)C)n2)c(OC(C)C)cc1C1CCNCC1", "cell viability", "127%"),
    ("CC(C)(C)/[N+]([O-])=C/c1ccc([S+](=O)([O-])[O][Na])cc1[S+](=O)([O-])[O][Na]", "cell viability", "118%"),
    ("O=C(Nc1ccc(OC(F)(F)F)cc1)c1sccc1NCc1ccnc2ccccc12", "cell viability", "105%"),
    ("OC[C@H]1O[C@@H](Oc2ccc(O)cc2)[C@H](O)[C@@H](O)[C@@H]1O", "cell viability", "87.7%"),
    ("COc1cc2c(N3CCN(C(=O)Nc4ccc(OC(C)C)cc4)CC3)ncnc2cc1OCCCN1CCCCC1", "cell viability", "83.8%"),
    ("CNC(=O)[C@H](Cc1ccccc1)NC(=O)[C@H](CC(C)C)[C@H](CSc1cccs1)C(=O)NO", "cell viability", "87.7%"),
]

Field: cell viability. Fill in for each record below.
1. Cc1ccc(NC(=O)C2(c3ccc4c(c3)OC(F)(F)O4)CC2)nc1-c1cccc(C(=O)O)c1
2. Cc1c[nH]c(/C=C2\C(=O)Nc3ccccc32)c1CCC(=O)O
3. C=C(C)[C@@H]1CC[C@]2(C)CC[C@]3(C)[C@H](CC[C@@H]4[C@@]5(C)CC[C@H](O)C(C)(C)[C@@H]5CC[C@]43C)[C@@H]12
4. C[C@@H](c1ncncc1F)[C@](O)(Cn1cncn1)c1ccc(F)cc1F
5. COCCOC(=O)C/1=C(C)/NC/2=C(C1C3=CC=CC(=C3)O)/C(=O)CC(C2)C4=C(OC)C=CC=C4 (stereo not drawn)
6. CC(=O)N1CCN(c2ccc(OCc3nn(C)c(C)c3-c3cccc4c(CCCOc5cc(C)c(Cl)c(C)c5)c(C(=O)O)n(Cc5cccnc5)c34)cc2)CC1
7. COc1ccc(/C=C\c2cc(OC)c(OC)c(OC)c2)cc1O
8. CC(C)(C)OC(=O)CN(Cc1ccc(Cl)cc1)Cc1ccc([N+](=O)[O-])s1

43.4%
116%
127%
107%
99.7%
136%
26.6%
105%

Could you report cell viability for every entry in the following list?
1. O=C1\C=C(/OC2=C1C=CC=C2C3=CC=CC=C3)N4CCOCC4
2. COc1cc2nccc(Oc3ccc(NC(=O)Nc4ccc(F)cc4F)c(F)c3)c2cc1OC
3. CCC[C@@H]1C[C@@H](C(=O)N[C@@H]([C@H]2O[C@H](SC)[C@H](O)[C@@H](O)[C@H]2O)[C@@H](C)O)N(C)C1.Cl

83%
88.1%
111%
